Molecular target: T1, extracellular domain of human ROR1 (human, UniProt Q01973 30-406)
T1 construct: also called hROR1; hROR1 extracellular recombinant protein
T1 sequence (Q01973 30-406 limits assumed): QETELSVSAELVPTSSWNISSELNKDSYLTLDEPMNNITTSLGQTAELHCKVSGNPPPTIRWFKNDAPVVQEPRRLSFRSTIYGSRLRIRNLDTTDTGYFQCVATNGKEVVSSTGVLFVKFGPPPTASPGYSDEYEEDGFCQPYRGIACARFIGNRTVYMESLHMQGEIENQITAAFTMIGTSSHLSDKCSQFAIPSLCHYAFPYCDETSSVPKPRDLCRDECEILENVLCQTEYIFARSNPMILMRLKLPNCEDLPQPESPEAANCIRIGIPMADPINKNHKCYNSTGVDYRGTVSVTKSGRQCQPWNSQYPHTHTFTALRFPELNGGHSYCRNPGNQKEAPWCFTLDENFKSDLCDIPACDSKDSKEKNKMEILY
Assay: ELISA screening
endpoint name: binding result

binder	value
UC-103 (antibody, V domains shown, Mouse-derived anti-hROR1 mAb, detected with anti-mouse IgG; also called UC-103 mAb) VH: EIQLQQSGPVLVKPGASVKVSCKASGYAFTAYNIHWVRQSHGKRLEWIGSFDPYDGGSSYNQKFKDKATLTVDKSSTTAYMHLNSLTSEDSAVYYCARGWYYFDYWGHGTTLTVSS VL: DVQITQSPSYLAASPGETITINCRASKSISKYLAWYQEKPGKTNKLLIYSGSTLQSGIPSRFRGSGSGTDFTLTISSLEPEDFAMYYCQQHDESPYTFGEGTKLEIKR	binds
UC-107 (antibody, V domains shown, Mouse-derived anti-hROR1 mAb, detected with anti-mouse IgG; also called UC-107 mAb) VH: QIQLVQSGPELKKPGETVKISCKASGYTFTNYPIHWVKQAPGKGLKWMGWINTYSGVPTYADDFKGRFAFSLETSANTAYLQLNNLRNEDMATYFCARGDSSLFDYWGQGTTLTVSS VL: DVQMIQSPSSLSASLGERVSLTCRASQEISGYLIWLQQKPDGTITRLIYAASTLDSGVPKRFSGSRSGSDYSLTISSLESEDFADYYCLQYTSYPLTFGAGTKLELKR	binds
UC-101 (antibody, V domains shown, Mouse-derived anti-hROR1 mAb, detected with anti-mouse IgG; also called UC-101 mAb) VH: EVQLLETGGGLVQPGGSRKLSCVASGFSFSSYGMHWVRQAPEKGLEWVAYIGGTSNTIYFADTVKGRFTISRDNAKNTLFLQMASLRSEDTAMYYCARTNLLGMDYWGQGTSVTVSS VL: QIVLTQSPTIMSASPGEKVTMTCSASSSVSDMYWYQQKPGSSPRLLIYDTSNLASGVPVRFSGSGSGTSYSLTISRMEAEDAATYYCQQWISYTFGGGTKLEIKR	binds

All values here come from patent US20240117047A1.
